Reference source for all entries: PubChem BioAssay

# assay_name: PSAC antagonists in infected red cells, primary screen, cell-based, P. falciparum Indochina, OD700, 1 h (AID 1154)
# test_context: P. falciparum Indochina infected RBC osmotic lysis, higher = more signal, called active from +8 up or from −8 down
value_kind: z-score

* CCN1C(=O)[C@H]2[C@H]3[C@H](O)[C@H](O)CC(=NNC(=O)OCc4ccc(OC)cc4)[C@H]3CC[C@H]2C1=O | 3.18
* O=C1[C@H]2[C@H]3[C@H](O)[C@H](O)CC(=NOCc4ccccc4)[C@H]3CC[C@H]2C(=O)N1Cc1ccccc1 | 5.58
* CCOC(=O)CCN1C(=O)[C@H]2[C@H]3[C@H](O)[C@H](O)CC(=NNC(=O)OCC)[C@@H]3CC[C@H]2C1=O | -0.48
